Data origin, for the record: patent US8338339B2

- Tested on: proteolysis in leaf extracts of transgenic alfalfa expressing the red clover PPO1 gene
- assaySummary: Proteolysis (amino acid release) in PPO-alfalfa leaf extracts / alfalfa extracts with PPO activity
- Format: biochemical
- protocolConditions: PPO-Alfalfa, 250 mU/ml PPO activity, substrate 3 mM, 37° C.
quantity: Mean four hour Amino Acid Release (µmol/mg)
Answer in µmol/mg, number only, no unit symbol.

compound	subjectOfTest	Mean four hour Amino Acid Release, µmol/mg
Oc1ccccc1O	proteolysis in leaf extracts of transgenic alfalfa expressing the red clover PPO1 gene	0.37
Oc1cc(O)c2c(c1)O[C@H](c1ccc(O)c(O)c1)[C@H](O)C2 [Epicatichin, (−)-epicatichin]	proteolysis in leaf extracts of transgenic alfalfa expressing the red clover PPO1 gene	0.25
O=C(O)CCc1ccc(O)c(O)c1 [HCA, hydrocaffeic acid]	proteolysis in leaf extracts of transgenic alfalfa expressing the red clover PPO1 gene	0.25

State measured Mean four hour Amino Acid Release of the compound O=C(O)/C=C/c1ccc(O)c(O)c1 with proteolysis in leaf extracts of transgenic alfalfa expressing the red clover PPO1 gene.
0.12

State measured Mean four hour Amino Acid Release of the compound O=C(/C=C/c1ccc(O)c(O)c1)O[C@@H]1C[C@](O)(C(=O)O)C[C@@H](O)[C@H]1O with proteolysis in leaf extracts of transgenic alfalfa expressing the red clover PPO1 gene.
0.26
